tested on: redroot pigweed (Amaranthus retroflexus, AMARE); experiment: Post-emerge greenhouse herbicide test, phytotoxicity rating; format: in vivo; settings: 500 g al/ha, 14 days after application
parameterMeasured: AMARE phytotoxicity rating (0-100)

[
  {
    "smilesNotation": "Nc1ccc(Oc2cc(-n3c(=O)n4n(c3=S)CCCC4)c(F)cc2Cl)c(C(F)(F)F)c1",
    "parameterMeasured": "AMARE phytotoxicity rating (0-100)",
    "number": 70
  },
  {
    "smilesNotation": "O=c1n(CCCF)nnn1-c1cc(Oc2ncccc2C(F)(F)F)c(Cl)cc1Cl",
    "parameterMeasured": "AMARE phytotoxicity rating (0-100)",
    "number": 80
  },
  {
    "smilesNotation": "N#Cc1cccnc1Oc1cc(-n2nnn(CCCF)c2=O)c(Cl)cc1Cl",
    "parameterMeasured": "AMARE phytotoxicity rating (0-100)",
    "number": 80
  },
  {
    "smilesNotation": "Cn1nc(-c2cc(Oc3nc(F)c(F)cc3F)c(Cl)cc2F)c(Cl)c1C(F)(F)F",
    "parameterMeasured": "AMARE phytotoxicity rating (0-100)",
    "number": 100
  }
]
